The measured values listed here are drawn from patent US11453711B2.

Test Protocol: Body weight and food intake in C57BL/6 mice, fusion protein conjugates, 30 nmol/kg daily 10 days
Format: in vivo
# key: entry, value: Body weight reduction at 30 nmol/kg (% reduction compared to vehicle)(Day11)
Measurement Kind: Body weight reduction at 30 nmol/kg (% reduction compared to vehicle)(Day11) (%)

>  <Molecule>
MLC104: fusion polypeptide SEQ ID NO: 391 conjugated with Moiety A at 76K of Linker (conjugate, Moiety A conjugated at linker Lys76) HGEGTFTSDVSSYLEEQAAREFIAWLVRGGGGQEPGAQPGQEPGAQPGQEPGAQPGQEPGAQPGQEPGAQPGQEPGAQPGAQPGAQPGAQPGAQPGAQPGAQPGAQKGAQPARQGDHCPLGPGRCCRLHTVRASLEDLGWADWVLSPREVQVTMCIGACPSQFRAANLHAQIKTSLHRLRPDTVPAPCCVPASYNPMVLIQRTDTGVSLQTYDDLLARDCHCI

>  <Number>
22.7

$$$$
>  <Molecule>
MLC081: fusion polypeptide SEQ ID NO: 374 conjugated with Moiety C at 35C of Linker (conjugate, Moiety C conjugated at linker Cys35) HGEGTFTSDVSSYLEEQAAKEFIAWLVRGGGGQEPGAQPGQEPGAQPGQEPGAQPGQEPGAQPGQCPGAQPGQEPGAQPGQEPGAQPGAQPGAQPGAQPGAQPGAQPGAQPARQGDHCPLGPGRCCRLHTVRASLEDLGWADWVLSPREVQVTMCIGACPSQFRAANLHAQIKTSLHRLKPDTVPAPCCVPASYNPMVLIQKTDTGVSLQTYDDLLAKDCHCI

>  <Number>
21.5

$$$$
